Target protein (sequence): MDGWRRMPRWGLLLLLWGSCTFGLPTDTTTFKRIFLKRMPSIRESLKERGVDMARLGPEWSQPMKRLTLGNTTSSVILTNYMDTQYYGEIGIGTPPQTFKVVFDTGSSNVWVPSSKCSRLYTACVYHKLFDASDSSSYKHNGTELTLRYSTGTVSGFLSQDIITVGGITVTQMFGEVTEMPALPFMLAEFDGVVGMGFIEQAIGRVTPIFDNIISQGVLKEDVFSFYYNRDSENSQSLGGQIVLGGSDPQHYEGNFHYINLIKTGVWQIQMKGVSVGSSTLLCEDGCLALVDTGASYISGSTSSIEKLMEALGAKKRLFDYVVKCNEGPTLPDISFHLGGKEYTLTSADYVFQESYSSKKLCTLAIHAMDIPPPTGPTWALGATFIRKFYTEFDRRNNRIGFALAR
pIC50: −log10 of the molar value.
metric_name: pIC50

> print(dat)
                                smiles.code  metric.name  measured.value
1  CCCCNC(=O)[C@H](C)C[C@H](O)[C@@H](N)CC(C)(C)CCc1ccc(CO)cc1        pIC50            4.10
2  CCCCNC(=O)[C@H](C)C[C@H](O)[C@@H](N)CC(C)(C)CCc1ccc2ccccc2c1        pIC50            5.52
3  CCCCNC(=O)[C@H](C)C[C@H](O)[C@@H](N)Cc1ccc(OCc2ccccc2)cc1        pIC50            4.49

[I] CCCCNC(=O)[C@H](C)C[C@H](O)[C@@H](N)Cc1cccc(CCCC(C)(C)C)c1
[II] CCCCNC(=O)[C@H](C)C[C@H](O)[C@@H](N)CC(C)(C)CCc1cccc2ccccc12
Input line: Between item I and item II , which reported pIC50 is smaller? Return value: the label identifying the chosen record.
Output line: I

Numbers sourced from ChEMBL document CHEMBL1129114.
